- experimental.target: ALDH1A3 (Homo sapiens)
- Sequence (P47895 1-512): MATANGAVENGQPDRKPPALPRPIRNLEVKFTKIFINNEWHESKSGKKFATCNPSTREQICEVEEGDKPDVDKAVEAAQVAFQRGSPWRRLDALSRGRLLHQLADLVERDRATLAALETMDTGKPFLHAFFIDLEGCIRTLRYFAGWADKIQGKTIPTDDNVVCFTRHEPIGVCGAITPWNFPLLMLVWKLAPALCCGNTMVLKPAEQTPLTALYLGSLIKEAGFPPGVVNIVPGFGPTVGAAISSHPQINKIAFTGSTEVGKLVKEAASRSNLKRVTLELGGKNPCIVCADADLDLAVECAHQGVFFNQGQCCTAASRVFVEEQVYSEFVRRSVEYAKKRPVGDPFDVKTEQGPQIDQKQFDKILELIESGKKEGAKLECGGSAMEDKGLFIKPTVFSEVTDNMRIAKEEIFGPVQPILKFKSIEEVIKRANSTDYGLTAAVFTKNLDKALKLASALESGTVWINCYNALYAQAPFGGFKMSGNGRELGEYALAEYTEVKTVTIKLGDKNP
- test.summary: ALDH1A3 cellular assay (ALDEFLUOR) in WM266.4 melanoma cells
- Type: cell-based
- test.parameters: WM266.4 cells; 60 min incubation; percentage of ALDH-positive cells
pIC50: −log10 of the molar value.
Reported pIC50 is given for each of the following compounds.
measured.metric: pIC50

> print(dat)
                                   compound        result
1  O=C1CCc2cc(OCCN3CCCC3c3cccc(F)c3)c(F)cc2N1 (stereo not drawn)  6.00 to 7.00
2   O=C1CCc2cc(NC(=O)c3ncsc3-c3ccsc3)ccc2N1  5.00 to 6.00
3  O=C1CCc2cc(OCCN3CCCC3c3ccc(F)c(F)c3)ccc2N1 (stereo not drawn)  6.00 to 7.00
4  O=C1CCc2cc(OCCN3C(=O)CCC3c3ccccc3)ccc2N1 (stereo not drawn)        > 7.00
5  O=C1CCc2cc(NC(=O)c3scnc3-c3cccc(F)c3)ccc2N1        > 7.00
6  O=C1CCc2cc(OCCN3CCCC3c3cc(F)cc(F)c3)ccc2N1 (stereo not drawn)        > 7.00
7  Cc1ccc(C2CCCN2CCOc2ccc3c(c2)CCC(=O)N3)cc1 (stereo not drawn)  6.00 to 7.00
8  CC1(C)Oc2cc(OCCN3CCCC3c3cccc(F)c3)ccc2NC1=O (stereo not drawn)  6.00 to 7.00
9  CC1Oc2cc(OCCN3CCCC3c3cccc(F)c3)ccc2NC1=O (stereo not drawn)  6.00 to 7.00

====

- experimental.target: ALDH1A3 (Homo sapiens)
- test.summary: ALDH1A3 cellular assay (ALDEFLUOR) in WM266.4 melanoma cells
- Assay type: cell-based
- test.parameters: WM266.4 cells; 60 min incubation; percentage of ALDH-positive cells
pIC50: −log10 of the molar value.
Reported pIC50 is given for each of the following compounds.
measured.metric: pIC50

> print(dat)
                                   compound        result
1  O=C1CCc2cc(NC(=O)c3ncccc3-c3cccc(F)c3)ccc2N1  5.00 to 6.00
2  O=C1CCc2cc(OCCN3CC(F)(F)CC3c3cccc(F)c3)ccc2N1 (centres unmarked)        > 7.00
3   O=C1CCc2cc(NC(=O)c3scnc3-c3cccs3)ccc2N1        > 7.00
4  C[C@H](c1ccccc1)N(CCO)CCOc1ccc2c(c1)CCC(=O)N2  6.00 to 7.00
5  O=C1CCc2cc(NC(=O)c3scnc3-c3ccc(F)cc3)ccc2N1  6.00 to 7.00

====

- experimental.target: ALDH1A3 (Homo sapiens, UniProt P47895)
- test.summary: ALDH1A3 cellular assay (ALDEFLUOR) in WM266.4 melanoma cells
- Format: cell-based
- test.parameters: WM266.4 cells; 60 min incubation; percentage of ALDH-positive cells
pIC50: −log10 of the molar value.
measured.metric: pIC50

> print(dat)
                                   molecule  measured.metric        result
1      O=C1CCc2cc(OCCN(CCO)Cc3cccnc3)ccc2N1            pIC50  6.00 to 7.00
2  Cc1ccccc1C1CCCN1CCOc1ccc2c(c1)CCC(=O)N2 (stereo not drawn)            pIC50  5.00 to 6.00
3  O=C1CCc2cc(NC(=O)c3sc(N4CCOCC4)nc3-c3cccc(F)c3)ccc2N1            pIC50        > 7.00
4  O=C1CSc2cc(OCCN3CCCC3c3ccncc3)ccc2N1 (stereo not drawn)            pIC50  6.00 to 7.00
5  O=C1CCc2cc(NC(=O)c3scnc3-c3ccccc3F)ccc2N1            pIC50        > 7.00
6  CN(CCOc1ccc2c(c1)CCC(=O)N2)C(CO)c1cccc(F)c1 (stereo not drawn)            pIC50  6.00 to 7.00
7  Cc1nc(C2CCCN2CCOc2ccc3c(c2)CCC(=O)N3)cs1 (stereo not drawn)            pIC50  5.00 to 6.00
8  CCC1Oc2cc(OCCN3CCCC3c3cccc(F)c3)ccc2NC1=O (stereo not drawn)            pIC50        > 7.00
9  CCN(CC)CCN(CCOc1ccc2c(c1)CCC(=O)N2)Cc1ccccc1            pIC50        > 7.00

====

List of IC50 tested on ALDH1A1 (Homo sapiens).
measured.metric: IC50

> print(dat)
                                   compound        result
1  Cc1nn(C)cc1C1CCCN1CCOc1ccc2c(c1)CCC(=O)N2 (stereo not drawn) [ALDHI-2015]      ≥ 100 µM
2  CC1(C)Oc2cc(OCCN3CCCC3c3cccc(F)c3)ccc2NC1=O (stereo not drawn) [ALDHI-2043]      ≥ 100 µM
3  CN(CCOc1ccc2c(c1)CCC(=O)N2)Cc1ccccn1 [ALDHI-3012]      ≥ 100 µM
4  CN(CCOc1ccc2c(c1)CCC(=O)N2)Cc1cccnc1 [ALDHI-3010]  10 to 100 µM
5  C[C@H](c1ccccc1)N(CCO)CCOc1ccc2c(c1)CCC(=O)N2 [ALDHI-3006]  10 to 100 µM
6  O=C1CCc2cc(OCCN3CCCC3c3ccccc3F)ccc2N1 (stereo not drawn) [ALDHI-2002]      ≥ 100 µM
7  CCC1Oc2cc(OCCN3CCCC3c3cccc(F)c3)ccc2NC1=O (stereo not drawn) [ALDHI-2045]      ≥ 100 µM
8  O=C1CCc2cc(OCCN3CCCC3c3cc(F)cc(F)c3)ccc2N1 (stereo not drawn) [ALDHI-2032]  10 to 100 µM
9  O=C1CCc2cc(NC(=O)c3scnc3-c3cccc(F)c3)ccc2N1 [ALDHI-1003]      ≥ 100 µM

====

Reported AUC is given for each of the following molecules.
- test.summary: In vivo pharmacokinetics in female BALB/c mice
- Design: species or system mouse
- test.parameters: mouse, po, 5 mg/kg orally by gavage, plasma
measured.metric: AUC (µM·h)

> print(dat)
                                 smiles.str  measured.metric  numeric.value
1  CN(CCOc1ccc2c(c1)CCC(=O)N2)C(=O)c1cccc(F)c1              AUC            1.5
2  O=C1CCc2cc(NC(=O)c3scnc3-c3cccc(F)c3)ccc2N1              AUC           13.3

====

- experimental.target: ALDH1A3 (Homo sapiens, UniProt P47895)
- test.summary: ALDH1A3 cellular assay (ALDEFLUOR) in WM266.4 melanoma cells
- Assay type: cell-based
- test.parameters: WM266.4 cells; 60 min incubation; percentage of ALDH-positive cells
measured.metric: IC50

> print(dat)
                                   compound            result
1  Cc1noc(-c2ccccc2C(=O)Nc2ccc3c(c2)CCC(=O)N3)n1    100 to 1000 nM
2  CC1(c2ccccc2)COCCN1CCOc1ccc2c(c1)CCC(=O)N2 (stereo not shown)    100 to 1000 nM
3  Cc1cccc(C2CCCN2CCOc2ccc3c(c2)CCC(=O)N3)c1 (stereo not shown)  1000 to 10000 nM
4  O=C1CCc2cc(OCCN3CCCC3c3cccs3)ccc2N1 (stereo not shown)    100 to 1000 nM

====

List of IC50 tested on ALDH1A1 (Homo sapiens, UniProt P00352).
Sequence (P00352 whole entry): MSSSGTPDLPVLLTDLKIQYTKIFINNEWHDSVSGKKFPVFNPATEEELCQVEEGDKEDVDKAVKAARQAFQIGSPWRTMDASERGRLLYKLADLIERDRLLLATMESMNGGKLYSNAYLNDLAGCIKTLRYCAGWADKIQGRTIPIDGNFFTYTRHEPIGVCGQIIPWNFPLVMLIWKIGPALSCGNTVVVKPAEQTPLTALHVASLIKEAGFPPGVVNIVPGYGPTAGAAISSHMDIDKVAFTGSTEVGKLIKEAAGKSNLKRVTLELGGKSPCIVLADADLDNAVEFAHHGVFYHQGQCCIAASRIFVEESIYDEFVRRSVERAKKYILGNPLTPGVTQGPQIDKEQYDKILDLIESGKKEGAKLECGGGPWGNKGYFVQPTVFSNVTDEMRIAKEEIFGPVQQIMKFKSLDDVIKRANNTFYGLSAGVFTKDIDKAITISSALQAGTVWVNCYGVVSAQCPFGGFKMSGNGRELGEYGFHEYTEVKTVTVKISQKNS
measured.metric: IC50

> print(dat)
                                    compound        result
 1  O=C1CCc2cc(NC(=O)c3scnc3-c3ccccc3F)ccc2N1 [ALDHI-1021]      ≥ 100 µM
 2  C[C@@H](c1ccccc1)N(CCO)CCOc1ccc2c(c1)CCC(=O)N2 [ALDHI-3007]  10 to 100 µM
 3  CCn1cc(C2CCCN2CCOc2ccc3c(c2)CCC(=O)N3)cn1 (stereo not shown) [ALDHI-2016]      ≥ 100 µM
 4  O=C1COc2cc(NC(=O)c3scnc3-c3cccc(F)c3)ccc2N1 [ALDHI-1016]      ≥ 100 µM
 5  O=C1CCc2cc(OCCN3CCCC3c3cccs3)ccc2N1 (stereo not shown) [ALDHI-2013]      ≥ 100 µM
 6  CN(CCOc1ccc2c(c1)CCC(=O)N2)C(CO)c1cccc(F)c1 (stereo not shown) [ALDHI-3003]      ≥ 100 µM
 7  O=C1CCc2cc(NC(=O)c3sccc3-c3cccc(F)c3)ccc2N1 [ALDHI-1022]  10 to 100 µM
 8  CC1(c2cccc(F)c2)CCCN1CCOc1ccc2c(c1)CCC(=O)N2 (stereo not shown) [ALDHI-2037]      ≥ 100 µM
 9  O=C1CSc2cc(OCCN3CCCC3c3cccnc3)ccc2N1 (stereo not shown) [ALDHI-2028]      ≥ 100 µM
10  O=C1CCc2cc(OCCN3CCCCC3c3cccc(F)c3)ccc2N1 (stereo not shown) [ALDHI-2038]  10 to 100 µM
